- Target: sGC α1/β1 heterodimer stably expressed in CHO-K1 cells (CHO-K1/sGC) (Homo sapiens (Human), UniProt Q02108+Q02153)
- Sequence (Q02108 whole entry): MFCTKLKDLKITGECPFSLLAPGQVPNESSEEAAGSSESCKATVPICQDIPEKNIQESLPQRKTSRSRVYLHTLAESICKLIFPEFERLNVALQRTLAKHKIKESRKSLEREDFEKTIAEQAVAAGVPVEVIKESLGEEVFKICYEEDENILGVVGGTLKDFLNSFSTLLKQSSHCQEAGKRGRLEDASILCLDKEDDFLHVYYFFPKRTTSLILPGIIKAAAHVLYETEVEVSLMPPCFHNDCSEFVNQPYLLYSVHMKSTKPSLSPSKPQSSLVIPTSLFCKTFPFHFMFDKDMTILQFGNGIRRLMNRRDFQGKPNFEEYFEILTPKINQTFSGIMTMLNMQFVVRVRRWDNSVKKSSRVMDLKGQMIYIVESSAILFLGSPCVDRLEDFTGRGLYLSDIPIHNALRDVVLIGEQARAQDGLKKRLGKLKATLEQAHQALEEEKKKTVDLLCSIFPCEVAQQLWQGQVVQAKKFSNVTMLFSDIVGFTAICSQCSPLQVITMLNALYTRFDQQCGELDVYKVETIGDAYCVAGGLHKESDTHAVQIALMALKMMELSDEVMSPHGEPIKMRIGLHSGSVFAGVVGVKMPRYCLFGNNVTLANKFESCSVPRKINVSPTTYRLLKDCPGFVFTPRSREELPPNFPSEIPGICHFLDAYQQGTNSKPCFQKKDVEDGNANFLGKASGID
- Sequence (Q02153 whole entry): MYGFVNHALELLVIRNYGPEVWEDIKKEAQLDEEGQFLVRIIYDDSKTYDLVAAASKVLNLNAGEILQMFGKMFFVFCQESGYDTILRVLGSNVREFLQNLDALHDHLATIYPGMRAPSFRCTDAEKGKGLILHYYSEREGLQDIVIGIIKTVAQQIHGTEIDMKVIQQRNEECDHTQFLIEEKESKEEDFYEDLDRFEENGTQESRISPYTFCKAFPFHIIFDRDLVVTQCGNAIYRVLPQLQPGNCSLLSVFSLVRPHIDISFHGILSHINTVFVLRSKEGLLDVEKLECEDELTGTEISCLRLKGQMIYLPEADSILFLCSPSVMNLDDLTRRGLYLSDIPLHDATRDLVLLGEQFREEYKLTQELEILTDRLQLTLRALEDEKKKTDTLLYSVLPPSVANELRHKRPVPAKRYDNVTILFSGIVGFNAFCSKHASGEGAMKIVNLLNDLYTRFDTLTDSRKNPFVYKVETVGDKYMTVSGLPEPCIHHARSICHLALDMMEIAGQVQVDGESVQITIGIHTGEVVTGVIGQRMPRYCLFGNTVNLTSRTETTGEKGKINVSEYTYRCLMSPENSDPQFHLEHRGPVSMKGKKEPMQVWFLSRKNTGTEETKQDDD
- Assay comment: Cell-based sGC functional assay (Cyclic GMP Assay for sGC Activator: CASA assay)
- Test parameters: inflection point (IP) from 4P fit of percent activation
- Description: Cell-based sGC Functional Assay (Cyclic GMP Assay for sGC Activator: CASA Assay) Soluble guanylate cyclase (sGC) is a heme-containing enzyme that converts GTP to secondary messenger cGMP. […] Methods: A CHO-K1 cell line stably expressing the sGC α1/β1 heterodimer was generated using a standard transfection protocol. […] The level of intracellular cGMP was determined using an HTRF-based assay kit (CisBio, 62GM2PEC), which detects the displacement of a fluorescence labeled cGMP from its specific antibody. […]
Property label: EC50 (nM)
Give the number; nM is assumed, so skip it.

Summary for this compound, CC(C)(Cc1csc(C2(C3CC3)C(=O)Nc3nc(-c4nn(CCCC(F)(F)F)c5ncc(F)cc45)nc(N)c32)n1)C(=O)O (stereo not shown) [Example 96B] : EC50 is 311
